testSummary: Plasma and brain pharmacokinetics in rats, 1 and 7 days oral administration
Assay type: in vivo, Sprague-Dawley rats
recordedConditions: both sexes, Sprague-Dawley, rat, brain, po; rats; 2.67 g/kg/day p.o.; all time-points; read-out: Brain levels of trehalose as % of plasma levels
quantityMeasured: Kp

For `OC[C@H]1O[C@H](O[C@H]2O[C@H](CO)[C@@H](O)[C@H](O)[C@H]2O)[C@H](O)[C@@H](O)[C@@H]1O` , what is its reported Kp?
~0.01

----------
testSummary: Plasma and brain pharmacokinetics in rats, 1 and 7 days oral administration
Format: in vivo, Sprague-Dawley rats
recordedConditions: both sexes, Sprague-Dawley, po; rat plasma; Day 7; 2.67 g/kg/day p.o.; read-out: AUC0-12h
quantityMeasured: AUC(0-t)

For OC[C@H]1O[C@H](O[C@H]2O[C@H](CO)[C@@H](O)[C@H](O)[C@H]2O)[C@H](O)[C@@H](O)[C@@H]1O [trehalose] , what is its reported AUC(0-t)?
9490 ng·h/mL

----------
testSummary: Plasma pharmacokinetics in macaques, 1 and 7 days oral administration
Assay type: in vivo
recordedConditions: female, monkey, plasma, po, 2.67 g/kg/day, macaque plasma; 2.67 g/kg/day p.o.; Day 7
quantityMeasured: Cmax (ng/mL)
Numbers only, in ng/mL.

For `OC[C@H]1O[C@H](O[C@H]2O[C@H](CO)[C@@H](O)[C@H](O)[C@H]2O)[C@H](O)[C@@H](O)[C@@H]1O` , what is its reported Cmax?
9580

----------
testSummary: Brain and CSF trehalose levels in macaques after two days administration
Type: in vivo
recordedConditions: female, macaque, brain, oral, 2.67 g/kg for two days, 1 h post-administration on day 2, read-out: brain trehalose level
quantityMeasured: concentration at 1 h (ng/g)
One number for each entry, in ng/g.

For `OC[C@H]1O[C@H](O[C@H]2O[C@H](CO)[C@@H](O)[C@H](O)[C@H]2O)[C@H](O)[C@@H](O)[C@@H]1O` , what is its reported concentration at 1 h?
81.3

----------
testSummary: Plasma and brain pharmacokinetics in rats, 1 and 7 days oral administration
Type: in vivo, Sprague-Dawley rats
recordedConditions: both sexes, Sprague-Dawley, po; rat plasma; Day 1; 2.67 g/kg p.o.
quantityMeasured: AUC(0-inf) (ng·h/mL)
Answers are plain numbers, in ng·h/mL.

For OC[C@H]1O[C@H](O[C@H]2O[C@H](CO)[C@@H](O)[C@H](O)[C@H]2O)[C@H](O)[C@@H](O)[C@@H]1O [trehalose] , what is its reported AUC(0-inf)?
11100

----------
testSummary: Plasma and brain pharmacokinetics in rats, 1 and 7 days oral administration
Assay type: in vivo, Sprague-Dawley rats
recordedConditions: both sexes, Sprague-Dawley, po; rat plasma; Day 1; 2.67 g/kg p.o.
quantityMeasured: Tmax (min)
One number for each entry, in min.

For `OC[C@H]1O[C@H](O[C@H]2O[C@H](CO)[C@@H](O)[C@H](O)[C@H]2O)[C@H](O)[C@@H](O)[C@@H]1O` , what is its reported Tmax?
15

----------
testSummary: Plasma and brain trehalose levels 30 min post-dose in rat efficacy study (LC-MS/MS)
Format: in vivo, Sprague-Dawley rats
recordedConditions: Sprague-Dawley, rat, plasma; rats; 0.89 g/kg 3 times daily oral gavage; 30 min after one 0.89 g/kg dose; read-out: Plasma trehalose level
quantityMeasured: concentration at 30 min (ng/mL)
One number for each entry, in ng/mL.

For `OC[C@H]1O[C@H](O[C@H]2O[C@H](CO)[C@@H](O)[C@H](O)[C@H]2O)[C@H](O)[C@@H](O)[C@@H]1O` , what is its reported concentration at 30 min?
1130

----------
testSummary: Plasma pharmacokinetics in macaques, 1 and 7 days oral administration
Assay type: in vivo
recordedConditions: female, monkey, plasma, po, 2.67 g/kg/day, macaque plasma; 2.67 g/kg/day p.o.; Day 1
Experimental: Three female macaques (3.81-4.67 kg) received trehalose (2.67 and 5.34 g/kg/day, oral gavage in sterile water) for 7 days. Plasma samples were collected pre-dose and 15 min, 30 min, 1 h, 2 h, 4 h, 6 h, 12 h and 24 h post-dose on days 1 and 7 and analysed for trehalose levels using a validated LC-MS/MS method and plasma exposure time courses (FIG. 2) and pharmacokinetic parameters were calculated (Table 7).
quantityMeasured: AUC(0-inf) (ng·h/mL)
One number for each entry, in ng·h/mL.

For OC[C@H]1O[C@H](O[C@H]2O[C@H](CO)[C@@H](O)[C@H](O)[C@H]2O)[C@H](O)[C@@H](O)[C@@H]1O [trehalose] , what is its reported AUC(0-inf)?
27400

----------
testSummary: Plasma and brain pharmacokinetics in rats, 1 and 7 days oral administration
Assay type: in vivo, Sprague-Dawley rats
recordedConditions: both sexes, Sprague-Dawley, po; rat brain; Day 7; 2.67 g/kg/day p.o.; read-out: AUC0-12h
quantityMeasured: AUC(0-t) (µg·h/mL)
One number for each entry, in µg·h/mL.

For `OC[C@H]1O[C@H](O[C@H]2O[C@H](CO)[C@@H](O)[C@H](O)[C@H]2O)[C@H](O)[C@@H](O)[C@@H]1O` , what is its reported AUC(0-t)?
0.0653

----------
testSummary: Plasma, brain and CSF trehalose levels in macaques after 17 weeks administration
Type: in vivo, cynomolgus monkeys (Macaca fascicularis)
recordedConditions: female, cynomolgus monkey, plasma, po, 2.67 g/kg/day p.o. 17 weeks, 1 h after final administration, read-out: plasma trehalose level
quantityMeasured: concentration at 1 h (ng/mL)
Numbers only, in ng/mL.

For OC[C@H]1O[C@H](O[C@H]2O[C@H](CO)[C@@H](O)[C@H](O)[C@H]2O)[C@H](O)[C@@H](O)[C@@H]1O [trehalose] , what is its reported concentration at 1 h?
2450

----------
testSummary: Plasma pharmacokinetics in macaques, 1 and 7 days oral administration
Assay type: in vivo
recordedConditions: female, monkey, plasma, po, 2.67 g/kg/day, macaque plasma; 2.67 g/kg/day p.o.; Day 7
Protocol: Three female macaques (3.81-4.67 kg) received trehalose (2.67 and 5.34 g/kg/day, oral gavage in sterile water) for 7 days. Plasma samples were collected pre-dose and 15 min, 30 min, 1 h, 2 h, 4 h, 6 h, 12 h and 24 h post-dose on days 1 and 7 and analysed for trehalose levels using a validated LC-MS/MS method and plasma exposure time courses (FIG. 2) and pharmacokinetic parameters were calculated (Table 7).
quantityMeasured: AUC(0-inf) (ng·h/mL)
Answers are plain numbers, in ng·h/mL.

For OC[C@H]1O[C@H](O[C@H]2O[C@H](CO)[C@@H](O)[C@H](O)[C@H]2O)[C@H](O)[C@@H](O)[C@@H]1O [trehalose] , what is its reported AUC(0-inf)?
27400

----------
testSummary: Plasma and brain pharmacokinetics in rats, 1 and 7 days oral administration
Type: in vivo, Sprague-Dawley rats
recordedConditions: both sexes, Sprague-Dawley, po; rat brain; Day 7; 2.67 g/kg/day p.o.
quantityMeasured: half-life (min)
One number for each entry, in min.

For `OC[C@H]1O[C@H](O[C@H]2O[C@H](CO)[C@@H](O)[C@H](O)[C@H]2O)[C@H](O)[C@@H](O)[C@@H]1O` , what is its reported half-life?
63.6

----------
testSummary: Plasma pharmacokinetics in macaques, 1 and 7 days oral administration
Format: in vivo
recordedConditions: female, monkey, plasma, po, 5.34 g/kg/day, macaque plasma; 5.34 g/kg/day p.o.; Day 1
quantityMeasured: AUC(0-inf) (ng·h/mL)
Numbers only, in ng·h/mL.

For `OC[C@H]1O[C@H](O[C@H]2O[C@H](CO)[C@@H](O)[C@H](O)[C@H]2O)[C@H](O)[C@@H](O)[C@@H]1O` , what is its reported AUC(0-inf)?
80000

----------
testSummary: Plasma and brain pharmacokinetics in rats, 1 and 7 days oral administration
Format: in vivo, Sprague-Dawley rats
recordedConditions: both sexes, Sprague-Dawley, po; rat plasma; Day 7; 2.67 g/kg/day p.o.
quantityMeasured: AUC(0-inf) (ng·h/mL)
Numbers only, in ng·h/mL.

For `OC[C@H]1O[C@H](O[C@H]2O[C@H](CO)[C@@H](O)[C@H](O)[C@H]2O)[C@H](O)[C@@H](O)[C@@H]1O` , what is its reported AUC(0-inf)?
9880

----------
testSummary: Plasma pharmacokinetics in macaques, 1 and 7 days oral administration
Assay type: in vivo
recordedConditions: female, monkey, plasma, po, 5.34 g/kg/day, macaque plasma; 5.34 g/kg/day p.o.; Day 7
quantityMeasured: Cmax (ng/mL)
Numbers only, in ng/mL.

For OC[C@H]1O[C@H](O[C@H]2O[C@H](CO)[C@@H](O)[C@H](O)[C@H]2O)[C@H](O)[C@@H](O)[C@@H]1O [trehalose] , what is its reported Cmax?
22400

----------
testSummary: Plasma and brain pharmacokinetics in rats, 1 and 7 days oral administration
Type: in vivo, Sprague-Dawley rats
recordedConditions: both sexes, Sprague-Dawley, po; rat plasma; Day 1; 2.67 g/kg p.o.
quantityMeasured: Cmax (ng/mL)
Numbers only, in ng/mL.

For OC[C@H]1O[C@H](O[C@H]2O[C@H](CO)[C@@H](O)[C@H](O)[C@H]2O)[C@H](O)[C@@H](O)[C@@H]1O [trehalose] , what is its reported Cmax?
8900
